# SYSTEM UNDER TEST: Porphobilinogen deaminase (Homo sapiens) (UniProt P08397)
# Sequence (P08397 whole entry): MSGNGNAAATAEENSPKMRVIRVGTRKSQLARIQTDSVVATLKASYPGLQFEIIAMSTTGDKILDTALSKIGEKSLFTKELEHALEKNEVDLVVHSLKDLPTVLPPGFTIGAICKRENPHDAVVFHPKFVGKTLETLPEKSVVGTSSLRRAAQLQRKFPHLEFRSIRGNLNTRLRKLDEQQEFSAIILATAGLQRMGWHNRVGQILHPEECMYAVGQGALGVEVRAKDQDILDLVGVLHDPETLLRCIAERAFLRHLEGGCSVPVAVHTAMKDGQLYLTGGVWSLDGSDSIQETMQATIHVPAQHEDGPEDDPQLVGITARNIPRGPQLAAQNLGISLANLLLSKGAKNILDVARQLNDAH
# MEASUREMENT SETUP: at 100 µM
# Description: Compound was evaluated for the inhibition of human HMBS at 100uM
Calls of active or inactive are those of the source. The rule behind the calls is not given here.
METRIC: inhibition

Known inhibition results, listed for orientation:
# COMPOUND, METRIC, RESULT
measured = [
    ("CCOc1ccccc1C(=O)Nc1cccc(-c2nc3ncccn3c2C)c1", "inhibition", "inactive"),
    ("CCc1nc2ccc(C(=O)NCc3ccc4c(c3)OCO4)cn2c1N(C)Cc1cccs1", "inhibition", "inactive"),
    ("O=C1[C@@H](Oc2ccccc2)[C@@H](c2ccc(Cl)cc2)N1CCn1cnc2c(NCc3ccccc3)ncnc21", "inhibition", "inactive"),
    ("c1ccc(-c2[nH]c3ccccc3c2C(c2ccccn2)N2CCCC2)cc1 (configuration not stated)", "inhibition", "inactive"),
    ("CCc1ccc([C@@H]2C[C@H](C(F)(F)F)n3ncc(C(=O)NCc4ccc(OC)cc4)c3N2)cc1", "inhibition", "inactive"),
    ("O=C(Nc1ccc(N2CCNCC2)cc1)c1ccn2ncc(-c3cccc(Cl)c3)c2n1", "inhibition", "inactive"),
    ("COc1nc2ccc(Br)cc2cc1[C@@H](c1ccccc1)[C@@](O)(CCN(C)C)c1cccc2ccccc12", "inhibition", "inactive"),
    ("CC(C)(C)c1cnc(NC(=O)c2ccccc2O)s1", "inhibition", "inactive"),
    ("CCCCN(CCCC)c1c(C#N)cc(S(=O)(=O)Nc2ccccc2)cc1C#N", "inhibition", "inactive"),
    ("Cc1ccc(NC(=O)c2nc[nH]c2C(=O)Nc2nc3ccccc3[nH]2)c(C)c1", "inhibition", "inactive"),
]

Lab note: "CC(C)(C)CN1C(=O)C(c2ccccc2)(c2ccccc2)N=C1N" gave inhibition of inactive

Lab note: "NS(=O)(=O)c1cncc(-c2ccc3nccc(-c4cn[nH]c4)c3n2)c1" gave inhibition of inactive

Lab note: "O=C(NCCc1ccccc1)c1cc(-c2cccnc2)cnc1NCC1CC1" gave inhibition of inactive

Lab note: NCCC(O)C(=O)N[C@@H]1C[C@H](N)[C@@H](OC2O[C@H](CN)[C@@H](O)[C@H](O)[C@H]2O)[C@H](O)C1OC1O[C@H](CO)[C@@H](O)[C@H](N)[C@H]1O (some centres not stated) gave inhibition of inactive

Lab note: "CCCCc1ccc(C(=O)Nc2nccc3ccccc23)nc1" gave inhibition of inactive

Lab note: "O=C(Cn1ccnc1[N+](=O)[O-])NCc1ccccc1" gave inhibition of inactive

Lab note: "Clc1cccc(CO[C@H]2CCc3ccccc3[C@@H]2n2ccnn2)c1" gave inhibition of inactive
